kon values, listed per item
# TARGET DESC: ACE2 (human, UniProt Q9BYF1 18-740)
# Sequence (Q9BYF1 18-740 limits assumed): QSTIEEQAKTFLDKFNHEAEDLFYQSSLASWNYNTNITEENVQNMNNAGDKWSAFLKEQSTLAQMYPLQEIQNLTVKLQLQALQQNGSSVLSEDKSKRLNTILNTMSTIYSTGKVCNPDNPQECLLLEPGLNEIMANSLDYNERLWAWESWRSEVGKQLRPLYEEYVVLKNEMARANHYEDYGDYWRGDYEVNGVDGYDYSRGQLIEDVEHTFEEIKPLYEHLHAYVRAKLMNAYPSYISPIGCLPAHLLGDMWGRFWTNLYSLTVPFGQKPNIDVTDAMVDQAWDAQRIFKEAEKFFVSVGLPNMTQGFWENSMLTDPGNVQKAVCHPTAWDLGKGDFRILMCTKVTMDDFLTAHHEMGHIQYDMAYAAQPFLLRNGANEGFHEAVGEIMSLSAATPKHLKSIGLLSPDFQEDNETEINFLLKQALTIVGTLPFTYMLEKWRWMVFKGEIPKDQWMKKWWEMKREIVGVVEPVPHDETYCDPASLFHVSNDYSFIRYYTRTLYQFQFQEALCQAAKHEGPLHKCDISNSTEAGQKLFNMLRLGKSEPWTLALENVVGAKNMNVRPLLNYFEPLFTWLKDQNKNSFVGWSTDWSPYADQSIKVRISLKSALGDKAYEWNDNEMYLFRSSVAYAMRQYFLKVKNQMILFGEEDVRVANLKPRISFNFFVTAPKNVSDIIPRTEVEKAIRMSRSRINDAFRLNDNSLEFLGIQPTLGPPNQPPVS
MEASURED ATTRIBUTE: kon (M⁻¹ s⁻¹)

>>> quantitative_readout("ACE2 variant antibody 4-39 (VHH) VHH: EVQLVESGGGLVQPGGSLRLSCAASGRTFSNAAMGWFRQAPGKEREFVARILWTGASRNYADSVKGRFTISADNSKNTAYLQMNSLKPEDTAVYYCATTENPNPRWGQGTLVTVSS")
136000
>>> quantitative_readout("ACE2 variant antibody 4-63 (VHH) VHH: EVQLVESGGGLVQPGGSLRLSCAASGRTFSDYTMGWFRQAPGKEREFVAAINWSGGYTYYADSVKGRFTISADNSKNTAYLQMNSLKPEDTAVYYCATDPPLFWGQGTLVTVSS")
610000

Every entry's value here was drawn from patent US20210355194A1.
